In this section we review reported GI50 values for a set of compounds.
Test system: HT-29
Assay Explanation: NCI tumour cell line growth inhibition, 48 h
Active and inactive are the calls of the source. Cut-off read from the data, not from the text of the source: active = GI50 up to about 1.1 µM and inactive = higher. Where a SMILES comes first, the peptide text is derived from it. [ ]: non-standard residue; d: D form. The star is where a group is joined. Bn2Val = CC(C)[C@@H](C(=O)*)N(Cc1ccccc1)Cc1ccccc1; NH(4-F-benzyl) = Fc1ccc(CN*)cc1; NMeV = CN[C@H](C(=O)O)C(C)C; dNMeA = CN[C@H](C)C(=O)O
Measurement Type: GI50

>  <Compound>
CC(C)[C@H](NC(=O)[C@H](C(C)C)N(Cc1ccccc1)Cc1ccccc1)C(=O)N(C)[C@H](C(=O)N1CCC[C@H]1C(=O)N(C)[C@H](C)C(=O)NCc1ccc(F)cc1)C(C)C (Bn2Val-V[NMeV]P[dNMeA]-{NH(4-F-benzyl)})

>  <Experimental Target>
HT-29

>  <Experimental Result>
1.95 µM (inactive)

$$$$
>  <Compound>
Cc1cc(Cl)ccc1NC(=O)CCCC(=O)C1C/C(=N/O)CC/C1=N\O (stereo not drawn)

>  <Experimental Target>
HT-29

>  <Experimental Result>
> 100 µM (inactive)

$$$$
>  <Compound>
OC(c1cccnc1)C(F)(F)c1nc2ccccc2o1 (stereo not drawn)

>  <Experimental Target>
HT-29

>  <Experimental Result>
> 100 µM (inactive)

$$$$
>  <Compound>
Cn1cnnc1SC(F)(F)c1nc2ccccc2o1

>  <Experimental Target>
HT-29

>  <Experimental Result>
> 100 µM (inactive)

$$$$
>  <Compound>
Cc1ccc(/N=N/C(=N/NC(=O)c2cc(Cl)ccc2O)c2ccc(N(CCC#N)CCC#N)cc2C)cc1

>  <Experimental Target>
HT-29

>  <Experimental Result>
14.6 µM (inactive)

$$$$
>  <Compound>
CSc1ccc(/C=C2\N=C(c3ccccc3)N(c3nc4cc(Cl)c(F)cc4s3)C2=O)cc1

>  <Experimental Target>
HT-29

>  <Experimental Result>
49.4 µM (inactive)

$$$$
>  <Compound>
COC(=O)n1c(C[P+](c2ccccc2)(c2ccccc2)c2ccccc2)cc2ccccc21

>  <Experimental Target>
HT-29

>  <Experimental Result>
1.75 µM (inactive)

$$$$
>  <Compound>
O=C(CN1C(=O)c2ccccc2C1=O)NC1(C(=O)O)CCCC1

>  <Experimental Target>
HT-29

>  <Experimental Result>
> 100 µM (inactive)

$$$$

====

Test system: CCRF-CEM
Assay Explanation: NCI tumour cell line growth inhibition, 48 h
Activity calls are given as the source filed them. Rule as the data show it: active = GI50 up to about 1.1 µM and inactive = higher.
Labels: true for active, false for inactive

>  <Compound>
COc1cccc2c1C(=O)c1c(O)c3c(c(O)c1C2=O)C[C@@](O)(/C(C)=N/NC(=O)c1ccc(Cl)c(Cl)c1)C[C@@H]3OC1CC(N)C(O)C(C)O1 (stereo partly drawn)

>  <Assigned Category>
true

$$$$
>  <Compound>
NC1=C2C(Br)=CN([C@@H]3O[C@H](CO)[C@@H](O)[C@@H]3O)C2C(=O)N=N1 (stereo partly drawn)

>  <Assigned Category>
true

$$$$
>  <Compound>
O=C(NO)c1ccc(OCc2ccccc2)cc1

>  <Assigned Category>
false

$$$$

====

System: IGROV-1
Assay Explanation: NCI tumour cell line growth inhibition, 48 h
The source made the active and inactive calls. Rule as the data show it: active = GI50 up to about 1.1 µM and inactive = higher.
Possible outcomes: active, inactive

>  <Molecule>
COc1cc(Nc2nc3ccc(C(F)(F)F)cc3nc2-c2ccccc2)cc(OC)c1OC

>  <Assigned Category>
inactive

$$$$
>  <Molecule>
COP(=O)(OC)[C@H](O)[C@H]1C[C@@H]1c1ccccc1

>  <Assigned Category>
inactive

$$$$
>  <Molecule>
O=P(O)(O)OP(=O)(O)O

>  <Assigned Category>
inactive

$$$$
>  <Molecule>
NC1=NN(c2ccccc2)C2(O)c3ccncc3C3=NN(c4ccccc4)C(=O)C132 (stereo not given)

>  <Assigned Category>
inactive

$$$$
>  <Molecule>
CNc1c2cccc(C)c2nc2c(C(=O)NCCN(C)C)cccc12

>  <Assigned Category>
active

$$$$
